Test: Oral bioavailability in rat
Assay type: ADME, organism-based
Conditions: in vivo
property: bioavailability (%)
Give the quantity in %, number only.

Query: What does the data say about its bioavailability? Entry: `NC(=O)c1cc(-c2ccc(F)cc2)c2ccc(CN3C(=O)CCC3=O)cc2n1`
Response: 100

* * *

Test: Fraction unbound in dog plasma
Type: ADME, cell-free, Canis lupus familiaris
property: fraction unbound
Respond numerically, and do not add a unit to the figure.

Query: What does the data say about its fraction unbound? Entry: `C[C@@H]1CN(Cc2ccc3c(-c4cnn(C)c4)cc(C(N)=O)nc3c2)C[C@H](C(F)(F)F)O1`
Response: 0.045

* * *

Target: PXR (NR1I2) (Homo sapiens, UniProt O75469)
Experiment: Agonist activity at PXR (unknown origin) assessed as maximal efficacy at 30 uM
property: Emax at 30 µM (%)
Give the quantity in %, number only.

Consider the following illustrative entries.
>>> result_value("NC(=O)c1cc(-c2ccc(F)cc2)c2ccc(CNCC(F)(F)F)cc2n1")
50
>>> result_value("CC1CN(Cc2ccc3c(-c4ccc(F)cc4)cc(C(N)=O)nc3c2)CCO1 (racemic)")
26
>>> result_value("Cc1cnn(-c2cc(C(N)=O)nc3cc(CN4C(=O)CCC4=O)ccc23)c1")
54
>>> result_value("Cc1ncc(NCc2ccc3c(-c4ccc(F)cc4)cc(C(N)=O)nc3c2)cn1")
1

Next:
Query: So what Emax at 30 µM did CC(C)C1CN(Cc2ccc3c(-c4cnn(C)c4)cc(C(N)=O)nc3c2)CCO1 (racemic) get with PXR (NR1I2) (Homo sapiens, UniProt O75469)?
Response: 51

* * *

Molecular target: Nuclear receptor subfamily 1 group I member 2 (Homo sapiens)
Sequence (O75469 whole entry): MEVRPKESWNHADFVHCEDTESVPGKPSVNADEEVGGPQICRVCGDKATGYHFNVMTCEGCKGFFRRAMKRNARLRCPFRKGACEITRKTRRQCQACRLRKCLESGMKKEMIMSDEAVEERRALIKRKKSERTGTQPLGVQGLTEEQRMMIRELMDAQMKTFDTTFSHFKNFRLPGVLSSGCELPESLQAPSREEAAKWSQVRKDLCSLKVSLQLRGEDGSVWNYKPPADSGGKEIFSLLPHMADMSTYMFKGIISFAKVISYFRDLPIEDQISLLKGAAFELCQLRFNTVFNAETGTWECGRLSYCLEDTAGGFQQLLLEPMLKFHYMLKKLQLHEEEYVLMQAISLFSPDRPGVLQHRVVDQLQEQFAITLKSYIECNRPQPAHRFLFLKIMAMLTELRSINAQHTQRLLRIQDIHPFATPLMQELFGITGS
Assay: Agonist activity at PXR (unknown origin)
property: pEC50
Lab note — pEC50 values are minus log10 of concentrations in M.

>>> result_value("CC1CC=C(c2cc(C(N)=O)nc3cc(CN4C(=O)CCC4=O)ccc23)CC1 (racemic)")
6.22

Next:
Query: What does the data say about its pEC50? Entry: `NC(=O)c1cc(-c2ccc(F)cc2)c2ccc(CN3CCOC3=O)cc2n1`
Response: 5.01

* * *

Target: P-gp (ABCB1) (Rattus norvegicus, UniProt P43245)
Sequence (P43245 whole entry): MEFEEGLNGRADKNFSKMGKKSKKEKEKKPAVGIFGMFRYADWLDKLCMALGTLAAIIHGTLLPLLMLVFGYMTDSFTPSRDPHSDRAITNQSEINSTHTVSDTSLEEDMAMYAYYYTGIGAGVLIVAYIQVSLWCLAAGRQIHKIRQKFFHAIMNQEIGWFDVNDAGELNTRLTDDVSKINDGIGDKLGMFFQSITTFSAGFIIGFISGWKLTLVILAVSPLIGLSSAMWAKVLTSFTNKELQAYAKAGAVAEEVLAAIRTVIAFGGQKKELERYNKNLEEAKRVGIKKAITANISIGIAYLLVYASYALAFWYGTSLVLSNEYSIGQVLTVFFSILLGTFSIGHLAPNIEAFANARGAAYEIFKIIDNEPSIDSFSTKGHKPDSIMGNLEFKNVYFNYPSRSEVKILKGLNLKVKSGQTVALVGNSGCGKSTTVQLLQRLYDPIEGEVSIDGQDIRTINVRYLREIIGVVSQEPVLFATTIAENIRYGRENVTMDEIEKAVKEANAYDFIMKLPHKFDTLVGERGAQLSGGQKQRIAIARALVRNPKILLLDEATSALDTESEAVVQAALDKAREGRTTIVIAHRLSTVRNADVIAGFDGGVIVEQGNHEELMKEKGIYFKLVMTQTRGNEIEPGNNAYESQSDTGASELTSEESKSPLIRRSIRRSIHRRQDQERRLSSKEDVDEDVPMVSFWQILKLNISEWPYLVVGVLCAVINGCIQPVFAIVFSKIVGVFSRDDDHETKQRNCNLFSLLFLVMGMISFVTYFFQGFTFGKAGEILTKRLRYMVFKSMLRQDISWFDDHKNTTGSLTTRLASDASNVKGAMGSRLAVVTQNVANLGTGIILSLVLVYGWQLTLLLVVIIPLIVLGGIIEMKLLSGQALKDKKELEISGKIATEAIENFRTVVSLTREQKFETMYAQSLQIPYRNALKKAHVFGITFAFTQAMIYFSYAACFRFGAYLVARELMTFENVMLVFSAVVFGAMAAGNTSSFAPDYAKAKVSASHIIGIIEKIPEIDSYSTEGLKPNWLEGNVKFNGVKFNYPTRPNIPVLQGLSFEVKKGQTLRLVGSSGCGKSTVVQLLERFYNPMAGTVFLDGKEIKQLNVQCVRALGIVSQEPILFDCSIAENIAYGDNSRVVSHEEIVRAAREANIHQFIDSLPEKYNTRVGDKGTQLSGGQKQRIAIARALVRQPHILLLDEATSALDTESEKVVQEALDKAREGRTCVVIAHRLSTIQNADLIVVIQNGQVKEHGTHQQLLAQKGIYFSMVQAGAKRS
Test: Substrate activity at rat P-gp […] in […] LLC-MDR1 cells assessed as efflux ratio of apparent permeability across basolateral to apical over apical to basolateral side
Type: ADME, cell-based, LLC-MDR1 cell
Settings: LLC-PK1
# reported efflux ratio; entries follow
Respond numerically, and do not add a unit to the figure.

Consider the following illustrative entries.
>>> result_value("CC(C)C1CN(Cc2ccc3c(-c4cnn(C)c4)cc(C(N)=O)nc3c2)CCO1 (racemic)")
1.3
>>> result_value("Cc1ccn(-c2cc(C(N)=O)nc3cc(CN4C(=O)CCC4=O)ccc23)n1")
18
>>> result_value("CN1CC=C(c2cc(C(N)=O)nc3cc(CN4C(=O)CCC4=O)ccc23)CC1")
19

Query: What does the data say about its efflux ratio? Entry: CC(c1ccc2c(-c3cnn(C)c3)cc(C(N)=O)nc2c1)c1cnn(CC(F)(F)F)c1 (racemic)
Response: 18

* * *

Assay: Volume of distribution in rat at 1 mg/kg, iv
Assay type: ADME, organism-based
Settings: in vivo
property: Vd
The number alone won't do; follow it with the unit.

Query: What does the data say about its Vd? Entry: `C[C@@H]1CN(Cc2ccc3c(-c4cnn(C)c4)cc(C(N)=O)nc3c2)C[C@H](C(F)(F)F)O1`
Response: 5.7 L/kg

* * *

Molecular target: UniProtKB O75469
Assay: Agonist activity at PXR (unknown origin) assessed as maximal efficacy at 30 uM
property: Emax at 30 µM (%)
Give the quantity in %, number only.

Consider the following illustrative entries.
>>> result_value("CC1CC=C(c2cc(C(N)=O)nc3cc(CN4C(=O)CCC4=O)ccc23)CC1 (racemic)")
115
>>> result_value("CC(c1ccc2c(-c3cnn(C)c3)cc(C(N)=O)nc2c1)c1cnn(CC(F)(F)F)c1 (racemic)")
75

Query: So what Emax at 30 µM did `Cc1ncc(-c2cc(C(N)=O)nc3cc(CN4C(=O)CCC4=O)ccc23)s1` get with UniProtKB O75469?
Response: 137

Query: So what Emax at 30 µM did `NC(=O)c1cc(-c2ccc(F)cc2)c2ccc(CCc3cncnc3)cc2n1` get with UniProtKB O75469?
Response: 47

Query: So what Emax at 30 µM did `Cn1cc(Cc2ccc3c(-c4ccc(F)cc4)cc(C(N)=O)nc3c2)cn1` get with UniProtKB O75469?
Response: 21

Query: So what Emax at 30 µM did `Cn1ccc(CCc2ccc3c(-c4ccc(F)cc4)cc(C(N)=O)nc3c2)n1` get with UniProtKB O75469?
Response: 97

Query: So what Emax at 30 µM did CC1CN(Cc2ccc3c(-c4cnn(C)c4)cc(C(N)=O)nc3c2)CCO1 (racemic) get with UniProtKB O75469?
Response: 1

Query: So what Emax at 30 µM did `Cc1cnn(Cc2ccc3c(-c4ccc(F)cc4)cc(C(N)=O)nc3c2)c1` get with UniProtKB O75469?
Response: 53

Query: So what Emax at 30 µM did `Cc1cc(NCc2ccc3c(-c4ccc(F)cc4)cc(C(N)=O)nc3c2)no1` get with UniProtKB O75469?
Response: 49

Query: So what Emax at 30 µM did `NC(=O)c1cc(-c2ccc(F)cc2)c2ccc(CN3CCOC3=O)cc2n1` get with UniProtKB O75469?
Response: 95

Query: So what Emax at 30 µM did `CN(C)C(=O)C(C)(C)c1ccc2c(-c3ccc(F)cc3)cc(C(N)=O)nc2c1` get with UniProtKB O75469?
Response: 110

* * *

Test: Oral bioavailability in rat at 20 mg/kg
Assay type: ADME, organism-based
Details: in vivo
property: bioavailability (%)
Give the quantity in %, number only.

Query: What does the data say about its bioavailability? Entry: `Cn1cc(-c2cc(C(N)=O)nc3cc(CN4CCO[C@@H](C(F)(F)F)C4)ccc23)cn1`
Response: 100

* * *

Experiment: Clearance in monkey at 0.5 mg/kg, iv
Type: ADME, organism-based, Macaca mulatta
Conditions: rhesus monkey, in vivo
property: clearance (mL/min/kg)
Give the quantity in mL/min/kg, number only.

Query: What does the data say about its clearance? Entry: `C[C@@H]1CN(Cc2ccc3c(-c4cnn(C)c4)cc(C(N)=O)nc3c2)C[C@H](C(F)(F)F)O1`
Response: 22

* * *

Biological target: Voltage-gated inwardly rectifying potassium channel KCNH2 (Homo sapiens)
Sequence (Q12809 whole entry): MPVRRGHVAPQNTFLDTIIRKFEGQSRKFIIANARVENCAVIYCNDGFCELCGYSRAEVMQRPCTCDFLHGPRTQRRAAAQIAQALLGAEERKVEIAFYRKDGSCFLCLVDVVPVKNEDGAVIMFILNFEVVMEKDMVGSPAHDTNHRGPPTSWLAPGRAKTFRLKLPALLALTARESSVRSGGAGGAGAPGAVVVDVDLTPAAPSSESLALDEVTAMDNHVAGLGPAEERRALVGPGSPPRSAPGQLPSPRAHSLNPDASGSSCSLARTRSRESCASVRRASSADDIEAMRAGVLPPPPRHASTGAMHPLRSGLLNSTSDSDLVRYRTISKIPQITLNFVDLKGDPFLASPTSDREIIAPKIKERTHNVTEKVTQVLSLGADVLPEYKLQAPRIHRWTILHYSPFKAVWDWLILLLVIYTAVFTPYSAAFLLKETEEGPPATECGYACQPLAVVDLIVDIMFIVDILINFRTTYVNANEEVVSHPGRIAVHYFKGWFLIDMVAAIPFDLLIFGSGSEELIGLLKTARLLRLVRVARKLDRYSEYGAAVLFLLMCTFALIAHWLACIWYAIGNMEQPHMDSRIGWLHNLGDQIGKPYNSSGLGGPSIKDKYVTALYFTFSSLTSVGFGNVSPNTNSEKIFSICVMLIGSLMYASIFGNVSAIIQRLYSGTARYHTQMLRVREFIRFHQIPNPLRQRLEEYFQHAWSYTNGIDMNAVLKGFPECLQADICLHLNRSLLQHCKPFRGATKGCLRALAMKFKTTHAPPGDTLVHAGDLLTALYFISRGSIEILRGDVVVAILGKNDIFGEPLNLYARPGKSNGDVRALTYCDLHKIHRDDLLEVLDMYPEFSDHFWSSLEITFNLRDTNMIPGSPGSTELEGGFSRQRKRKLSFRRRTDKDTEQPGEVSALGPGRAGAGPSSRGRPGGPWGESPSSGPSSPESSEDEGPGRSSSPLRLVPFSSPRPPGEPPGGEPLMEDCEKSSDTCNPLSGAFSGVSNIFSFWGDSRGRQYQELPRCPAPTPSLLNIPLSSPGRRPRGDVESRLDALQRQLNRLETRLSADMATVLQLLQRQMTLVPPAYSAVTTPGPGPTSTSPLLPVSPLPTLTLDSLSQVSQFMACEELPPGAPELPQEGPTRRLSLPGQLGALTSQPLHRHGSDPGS
Assay: Displacement of [35S]-MK-499 from hERG expressed in HEK293 cells […]
property: pIC50
Lab note — pIC50 values are minus log10 of concentrations in M.

Consider the following illustrative entries.
>>> result_value("CC(c1ccc2c(-c3cnn(C)c3)cc(C(N)=O)nc2c1)c1cnn(CC(F)(F)F)c1 (racemic)")
5.00
>>> result_value("Cc1cnn(Cc2ccc3c(-c4ccc(F)cc4)cc(C(N)=O)nc3c2)c1")
5.72
>>> result_value("CC(C)(C(=O)N1CCOCC1)c1ccc2c(-c3ccc(F)cc3)cc(C(N)=O)nc2c1")
4.69

Query: What does the data say about its pIC50? Entry: `NC(=O)c1cc(N2CCOCC2)c2ccc(CN3C(=O)CCC3=O)cc2n1`
Response: 4.77

Query: What does the data say about its pIC50? Entry: `CN(C)C(=O)C(C)(C)c1ccc2c(-c3ccc(F)cc3)cc(C(N)=O)nc2c1`
Response: 4.40

Query: What does the data say about its pIC50? Entry: NC(=O)c1cc(-c2ccc(F)cc2)c2ccc(C(N3CCOCC3)C(F)(F)F)cc2n1 (racemic)
Response: 4.95

Query: What does the data say about its pIC50? Entry: `Cn1cc(Cc2ccc3c(-c4ccc(F)cc4)cc(C(N)=O)nc3c2)cn1`
Response: 5.46

* * *

Test: Solubility of the compound in FeSSIF
Format: physicochemical
property: solubility (µg/mL)
Give the quantity in µg/mL, number only.

Query: What does the data say about its solubility? Entry: `C[C@@H]1CN(Cc2ccc3c(-c4cnn(C)c4)cc(C(N)=O)nc3c2)C[C@H](C(F)(F)F)O1`
Response: 2100
